- System: MCF-7 cells
- test_name: Cell viability, crystal violet colorimetric assay
- Type: cell-based
- experimental_conditions: Exp.1; 72 hrs; tested at 0.02-0.1 mM; unstarred values
- Procedure: Immortalised osteolytic metastatic breast cancer cell lines, a) hormone-dependent MCF-7 and b) hormone refractory MDA-MB231, together with the daughter line MDA-MB231TXSA were incubated with 5 gradual concentrations of compounds of the invention as described below. Cell viability was assessed with the crystal violet colorimetric assay and IC50s were evaluated. […] Cells were cultured in the presence of the compounds for 72 hrs and viability was assessed on day 3 by crystal violet assay. […]
reported_endpoint: IC50 (µM)
Expressed in µM, but write only the number.

CCOP(=O)(OCC)C(CCC(=O)O)P(=O)(OCC)OCC [bpp(OEt), reference compound] | 107

Turning now to a further compound:
Request: Lab request: please report IC50 under test system MCF-7 cells for CCOP(=O)(OCC)C(CCC(=O)Oc1cc2c(c(C)c1C)OC(C)(CCCC(C)CCCC(C)CCCC(C)C)CC2)P(=O)(OCC)OCC (centres unmarked) [γ-toc-bpp(OEt), γ-tocopheryl bisphosphonic ester]
Result: 114
